System under test: SMYD3 (Homo sapiens (Human), UniProt Q9H7B4)
Sequence (Q9H7B4 whole entry): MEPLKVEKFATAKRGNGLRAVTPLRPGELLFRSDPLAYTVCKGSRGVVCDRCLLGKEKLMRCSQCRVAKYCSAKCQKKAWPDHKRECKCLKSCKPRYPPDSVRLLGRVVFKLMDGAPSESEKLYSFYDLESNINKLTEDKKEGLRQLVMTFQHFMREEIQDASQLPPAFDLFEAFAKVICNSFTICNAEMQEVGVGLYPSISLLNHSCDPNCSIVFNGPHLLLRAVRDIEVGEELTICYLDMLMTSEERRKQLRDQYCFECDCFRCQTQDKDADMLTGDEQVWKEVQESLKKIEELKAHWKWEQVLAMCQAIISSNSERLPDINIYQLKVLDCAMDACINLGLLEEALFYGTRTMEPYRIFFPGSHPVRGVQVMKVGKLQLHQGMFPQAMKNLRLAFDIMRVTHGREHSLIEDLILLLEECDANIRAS
Experiment: SMYD3 biochemical assay (SPA, 3H-SAM methylation of MEKK2 protein substrate)
Condition details: read-out: SMYD3 Biochem IC50 (μM)*
// boundary case: IC50 equal to 2 µM maps to class 0; strictly smaller maps to class 1

Cc1ccc(C[C@H](CN)C(=O)N2CCC(NC(=O)c3cc(C4CC4)on3)CC2)cc1O [compound 38] = class 1

Task: Lab note: IC50 threshold 2 µM. Does this molecule come in strictly under it? C[C@H]1C[C@@H](NC(=O)c2cc(C3CC3)on2)CCN1S(=O)(=O)c1cccnc1 [compound 317]
Output: class 1

###

pIC50 overview
System under test: SMYD3 (Homo sapiens (Human), UniProt Q9H7B4)
Experiment: SMYD3 cell assay (Trimethyl-MEKK2 In-Cell Western in 293T/17 cells)
Format: cell-based
Condition details: read-out: SMYD3 Cell IC50*
The meaning of pIC50 here: minus log10 of the concentration in molar units.

These recorded examples may help you get a feel for the data.
CC(C)C1CN(S(=O)(=O)N2[C@@H]3CC[C@H]2C[C@@H](NC(=O)c2cc(C4CC4)on2)C3)CCN1 (some centres unmarked) = 6.47
C[C@H]1C[C@@H](NC(=O)c2cc(C3CC3)on2)CCN1S(=O)(=O)C[C@H]1CCC[C@H](N)C1 = 7.05
O=C(N[C@H]1C[C@H]2CC[C@@H](C1)N2S(=O)(=O)N1CCNCC1c1ccccc1)c1cc(C2CC2)on1 (some centres unmarked) = 6.44
C[C@@H](NC1CCN(S(=O)(=O)N2[C@@H]3CC[C@H]2C[C@@H](NC(=O)c2cc(C4CC4)on2)C3)CC1)c1ccc(F)cc1 = 6.17
C[C@H]1C[C@@H](NC(=O)c2cc(C3CC3)on2)CCN1S(=O)(=O)N1CCC(N(C)Cc2ccccc2)CC1 = 6.81

Lab book: pIC50 of C[C@H]1C[C@@H](NS(=O)(=O)N2[C@@H]3CC[C@H]2C[C@@H](NC(=O)c2cc(C4CC4)on2)C3)CCN1 noted as 6.69

Lab book: pIC50 of CCC1CNCCN1S(=O)(=O)N1[C@@H]2CC[C@H]1C[C@@H](NC(=O)c1cc(C3CC3)on1)C2 (some centres unmarked) noted as 6.81

Lab book: pIC50 of CCN(CC)C1CCN(S(=O)(=O)N2[C@@H]3CC[C@H]2C[C@@H](NC(=O)c2cc(C4CC4)on2)C3)CC1 noted as 6.66

Lab book: pIC50 of CC(C)c1cc(C(=O)N[C@H]2C[C@H]3CC[C@@H](C2)N3S(=O)(=O)CC2CCN(C)CC2)no1 noted as 6.69

Lab book: pIC50 of O=C(N[C@H]1C[C@H]2CC[C@@H](C1)N2S(=O)(=O)N1CC2CCC1CN2)c1cc(C2CC2)on1 noted as 7.16

Lab book: pIC50 of CNC1CCN(S(=O)(=O)N2[C@@H]3CC[C@H]2C[C@@H](NC(=O)c2cc(C4CC4)on2)C3)CC1 noted as 7.39

Lab book: pIC50 of CN[C@H]1CC[C@H](S(=O)(=O)N2CC[C@@H](NC(=O)c3cc(C4CC4)on3)[C@@H](C)C2)CC1 noted as 6.80

Lab book: pIC50 of C[C@H]1C[C@@H](NC(=O)c2cc(C3CC3)on2)CCN1S(=O)(=O)[C@H]1CCCNC1 noted as 6.59

Lab book: pIC50 of O=C(N[C@H]1C[C@H]2CC[C@@H](C1)N2S(=O)(=O)N1CCC(NCCCN2CCOCC2)CC1)c1cc(C2CC2)on1 noted as 6.50

###

IC50 overview
System under test: UniProt Q9H7B4
Experiment: SMYD3 biochemical assay (SPA, 3H-SAM methylation of MEKK2 protein substrate)
Condition details: read-out: SMYD3 Biochem IC50 (μM)*
Field format: number, assumed µM, no unit text.

O=C(N[C@@H]1CCN(S(=O)(=O)CCCN2CCOCC2)[C@@H](Cc2ccccc2)C1)c1cc(C2CC2)on1 = 9.18
C[C@H]1CC(NC(=O)c2cc(C3CC3)on2)CCN1C(=O)C12C3C4C1C1C2C3C41N (some centres unmarked) = 4.64

Lab book: IC50 of C[C@H]1CC(NC(=O)c2cc(C3CC3)on2)CCN1C(=O)C1CC12CCNCC2 (some centres unmarked) noted as 1.42

Lab book: IC50 of C[C@@H]1CN(C(=O)CC2CCNCC2)CC[C@H]1NC(=O)c1cc(C2CC2)on1 noted as 1.53

Lab book: IC50 of CNS(=O)(=O)N1CC[C@@H](NC(=O)c2cc(C3CC3)on2)C[C@H]1C noted as 6.76

###

System under test: SMYD3 (Homo sapiens (Human), UniProt Q9H7B4)
Experiment: SMYD3 cell assay (Trimethyl-MEKK2 In-Cell Western in 293T/17 cells)
Format: cell-based
Condition details: read-out: SMYD3 Cell IC50*
// boundary case: IC50 equal to 400 nM maps to FALSE; strictly smaller maps to TRUE

O=C(N[C@H]1C[C@H]2CC[C@@H](C1)N2S(=O)(=O)C[C@@H]1CCCN1)c1cc(C2CC2)on1 = TRUE
COCCNC1CCN(S(=O)(=O)N2[C@@H]3CC[C@H]2C[C@@H](NC(=O)c2cc(C4CC4)on2)C3)CC1 = TRUE
O=C(N[C@H]1C[C@H]2CC[C@@H](C1)N2S(=O)(=O)N1CCC(Nc2ncccn2)CC1)c1cc(C2CC2)on1 = FALSE
O=C(N[C@H]1C[C@H]2CC[C@@H](C1)N2S(=O)(=O)[C@H]1CC[C@@H](NCCN2CCOCC2)CC1)c1cc(C2CC2)on1 = FALSE
O=C(N[C@H]1C[C@H]2CC[C@@H](C1)N2S(=O)(=O)CC1CCN(Cc2ccc(F)cc2)CC1)c1cc(C2CC2)on1 = TRUE

Task: Lab note: IC50 threshold 400 nM. Does this molecule come in strictly under it? O=C(N[C@H]1C[C@H]2CC[C@@H](C1)N2S(=O)(=O)N1CC2(CCN(CCc3ccccc3)CC2)C1)c1cc(C2CC2)on1
Output: TRUE

Task: Lab note: IC50 threshold 400 nM. Does this molecule come in strictly under it? CC(C)CCN(C)C1CCN(S(=O)(=O)N2[C@@H]3CC[C@H]2C[C@@H](NC(=O)c2cc(C4CC4)on2)C3)CC1
Output: TRUE

###

IC50 overview
System under test: SMYD3 (Homo sapiens (Human), UniProt Q9H7B4)
Experiment: SMYD3 cell assay (Trimethyl-MEKK2 In-Cell Western in 293T/17 cells)
Type: cell-based
Condition details: 293T/17 cells; read-out: SMYD3 Cell IC50 (μM)*
Field format: number, assumed µM, no unit text.

These recorded examples may help you get a feel for the data.
CCCCS(=O)(=O)N1CC[C@H](NC(=O)c2cc(C3CC3)on2)C[C@@H]1C = 0.782
C[C@H]1C[C@@H](NC(=O)c2cc(C3CC3)on2)CCN1S(=O)(=O)c1cccnc1NCCN = 1.34

Lab book: IC50 of C[C@H]1C[C@@H](NC(=O)c2cc(C3CC3)on2)CCN1S(=O)(=O)c1cccnc1 noted as 4.11

###

System under test: SMYD3 (Homo sapiens (Human), UniProt Q9H7B4)
Experiment: SMYD3 biochemical assay (SPA, 3H-SAM methylation of MEKK2 protein substrate)
Condition details: read-out: SMYD3 Biochem IC50 (μM)*
// boundary case: IC50 equal to 1 µM maps to no; strictly smaller maps to yes

See these solved cases before continuing.
CC1(C)CN(C(=O)CC2CCNCC2)CCC1NC(=O)c1cc(C2CC2)on1 (stereo not shown) [compound 157] = yes
C[C@H]1C[C@H](NC(=O)c2cc(C3CC3)on2)CCN1S(=O)(=O)Cc1cccnc1 [compound 325] = no
CNS(=O)(=O)N1CC[C@H](NC(=O)c2cc(C3CC3)on2)C[C@H]1C [compound 214] = no
C[C@@H]1CC(NC(=O)c2cc(C3CC3)on2)CCN1C(=O)C12C3C4C1C1C2C3C41N (stereo partly shown) [compound 202] = yes

Here is another compound to look at.
Task: Lab note: IC50 threshold 1 µM. Does this compound come in strictly under it? C[C@@H]1C[C@H](NC(=O)c2cc(C3CC3)on2)CCN1S(=O)(=O)c1cccc(C#N)c1 [compound 354]
Output: no

###

System under test: SMYD3 (Homo sapiens (Human), UniProt Q9H7B4)
Experiment: SMYD3 biochemical assay (SPA, 3H-SAM methylation of MEKK2 protein substrate)
Condition details: read-out: SMYD3 Biochem IC50 (μM)*
Readout type: log10 of IC50 (log10 of the value in µM)
Values are log10 of IC50 in µM.

These recorded examples may help you get a feel for the data.
COCC(C)S(=O)(=O)N1CC[C@H](NC(=O)c2cc(C3CC3)on2)C[C@@H]1C (stereo partly shown) [compound 393] = 0.50
CC(C)C1CC(NC(=O)c2cc(C3CC3)on2)CCN1C(=O)[C@H]1CC[C@H](N)CC1 (stereo partly shown) [compound 99] = -0.64
NCCNc1ncccc1S(=O)(=O)N1C2CCCC1CC(NC(=O)c1cc(C3CC3)on1)C2 (stereo not shown) [compound 476] = 0.12

Lab book: log10 of IC50 of C[C@@H]1CC(NC(=O)c2cc(C3CC3)on2)CCN1C(=O)CC1(C)CCNCC1 (stereo partly shown) [compound 116] noted as 0.46

Lab book: log10 of IC50 of C[C@H]1CN(S(=O)(=O)CCCN)CC[C@H]1NC(=O)c1cc(C2CC2)on1 [Cpd. No. 386] noted as -1.55

Lab book: log10 of IC50 of C[C@H]1C[C@@H](NC(=O)c2cc(C3CC3)on2)CCN1S(=O)(=O)c1cccc(C#N)c1 [compound 398] noted as -0.67

Lab book: log10 of IC50 of C[C@H]1CC(NC(=O)c2cc(C3CC3)on2)CCN1C(=O)CN1CCNCC1 (stereo partly shown) [compound 91] noted as 0.59

Lab book: log10 of IC50 of C[C@H]1CC(NC(=O)c2cc(C3CC3)on2)CCN1C(=O)CN (stereo partly shown) [compound 52] noted as 1.51

Lab book: log10 of IC50 of C[C@@H]1CN(S(=O)(=O)CCCN)CC[C@H]1NC(=O)c1cc(C2CC2)on1 [compound 388] noted as -0.34

The measured values listed here are drawn from patent US10577363B2.
